- procedure details: Ratio (HS) of CT50 values in aerobic condition to hypoxic condition (in N2 presence) given as CT50(A)/CT50(H)
- Assay type: functional
Quick reference for Ratio among some compounds
observation type: Ratio

{"columns": ["smiles text", "data value"],
 "data": [
  ["Cl.O=[N+]([O-])c1nccn1CCCNc1c2c(nc3ccccc13)CCCC2", 11],
  ["Cl.O=[N+]([O-])c1nccn1CCCNc1c2c(nc3ccccc13)CCSC2", 9],
  ["Cl.O=[N+]([O-])c1nccn1CCCNc1c2ccccc2nc2ccccc12", 5.5],
  ["CN1CCc2nc3ccccc3c(NCCCn3ccnc3[N+](=O)[O-])c2C1.Cl", 2.2]
]}
